Please find below Ki data on 5-hydroxytryptamine receptor 7 (Homo sapiens) compiled from the literature.
Sequence (P34969 whole entry): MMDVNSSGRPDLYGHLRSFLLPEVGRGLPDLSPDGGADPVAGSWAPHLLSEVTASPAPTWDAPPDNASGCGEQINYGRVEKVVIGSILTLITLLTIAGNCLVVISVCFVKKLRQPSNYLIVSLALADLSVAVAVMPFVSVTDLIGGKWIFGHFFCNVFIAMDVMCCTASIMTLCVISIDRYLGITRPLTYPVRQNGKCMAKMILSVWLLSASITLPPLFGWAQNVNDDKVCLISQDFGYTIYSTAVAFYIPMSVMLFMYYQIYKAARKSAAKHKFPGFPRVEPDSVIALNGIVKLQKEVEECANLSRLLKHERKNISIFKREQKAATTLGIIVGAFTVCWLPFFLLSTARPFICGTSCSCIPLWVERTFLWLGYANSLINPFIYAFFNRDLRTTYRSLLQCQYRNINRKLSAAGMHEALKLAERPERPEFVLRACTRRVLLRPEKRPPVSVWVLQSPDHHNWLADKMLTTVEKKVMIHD
Entry rule: numbers only, all in nM.

| MOLECULE | ASSAY_ENDPOINT | REPORTED_RESULT |
| --- | --- | --- |
| CC(C)c1ccccc1OCCN1CCC(NS(=O)(=O)c2cccc(Cl)c2)C1 (stereo unspecified) | Ki | 4 |

Endpoint output: Ki of NC(N)=NC(=O)c1ccc2c(c1)C(O)c1cccc(Cl)c1-2 (stereo unspecified) . Value?
41

Endpoint output: Ki of O=C1Nc2ccccc2C12CCN(CCN1CCN(c3ccccc3)CC1)C2 (stereo unspecified) . Value?
100

Endpoint output: Ki of O=C(CCN1CCN(c2ccc([N+](=O)[O-])cc2)CC1)c1csc2ccc(F)cc12 . Value?
91200
